Molecular target: full-length human Mineralocorticoid Receptor (MR) (Homo sapiens, UniProt P08235)
Construct: host or cells: PathHunter CHO-K1 cells
Sequence (P08235 1-984): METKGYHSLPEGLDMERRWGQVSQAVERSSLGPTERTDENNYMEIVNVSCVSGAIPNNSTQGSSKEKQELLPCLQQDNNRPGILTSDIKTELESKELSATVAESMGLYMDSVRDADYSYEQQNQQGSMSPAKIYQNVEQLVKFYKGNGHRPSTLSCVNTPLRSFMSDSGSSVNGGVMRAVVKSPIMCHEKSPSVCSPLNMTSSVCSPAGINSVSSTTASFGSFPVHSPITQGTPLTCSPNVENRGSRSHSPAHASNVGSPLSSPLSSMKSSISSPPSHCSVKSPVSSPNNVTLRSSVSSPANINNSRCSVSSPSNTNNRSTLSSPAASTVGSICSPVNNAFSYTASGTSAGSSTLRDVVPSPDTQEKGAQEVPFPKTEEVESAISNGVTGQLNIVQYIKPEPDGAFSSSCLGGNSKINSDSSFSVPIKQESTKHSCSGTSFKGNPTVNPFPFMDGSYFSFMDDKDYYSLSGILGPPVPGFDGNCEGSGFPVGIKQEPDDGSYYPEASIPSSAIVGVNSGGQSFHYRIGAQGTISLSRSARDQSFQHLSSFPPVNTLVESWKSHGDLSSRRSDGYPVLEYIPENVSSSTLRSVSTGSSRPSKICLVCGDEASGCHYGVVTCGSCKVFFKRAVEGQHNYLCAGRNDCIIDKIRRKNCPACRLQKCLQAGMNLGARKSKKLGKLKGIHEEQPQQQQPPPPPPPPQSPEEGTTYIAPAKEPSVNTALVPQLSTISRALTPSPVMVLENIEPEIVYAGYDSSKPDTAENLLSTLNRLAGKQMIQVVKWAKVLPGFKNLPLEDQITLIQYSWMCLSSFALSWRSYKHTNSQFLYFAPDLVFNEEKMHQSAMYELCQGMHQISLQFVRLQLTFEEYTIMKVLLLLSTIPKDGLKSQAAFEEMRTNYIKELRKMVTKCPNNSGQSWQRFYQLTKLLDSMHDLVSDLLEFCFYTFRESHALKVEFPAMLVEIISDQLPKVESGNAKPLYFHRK
Assay: human MR NH Pro assay (PathHunter Protein:Protein interaction assay), MR antagonist activity
Type: cell-based
Conditions: PathHunter CHO-K1 cells overexpressing human MR; aldosterone about 0.3 nM; 6 hours at 37° C.; luminescence; read-out: Primary Assay IP rating (IP = inflection point for a given dose-response titration curve)

{"COMPOUND": "CCC(C(=O)OC)(c1ccc(Cl)cc1)n1ncc2c(NS(C)(=O)=O)cccc21 (stereo not drawn)", "IC50": "100 to 500 nM"}
{"COMPOUND": "CNC(=O)C(CC#N)(c1ccc(Cl)cc1)n1ccc2c(NS(C)(=O)=O)cccc21 (stereo not drawn)", "IC50": "100 to 500 nM"}
{"COMPOUND": "CCC(CO)(c1ccc(Cl)cc1)n1ncc2c(NS(C)(=O)=O)cccc21 (single isomer, unassigned)", "IC50": "< 100 nM"}
{"COMPOUND": "CCC(c1ccc(Cl)cc1)(c1nnc(C(F)(F)F)o1)n1ccc2c(NS(C)(=O)=O)cccc21 (stereo not drawn)", "IC50": "100 to 500 nM"}
{"COMPOUND": "CCC(C(=O)OC)(c1ccc(F)cc1Cl)n1ccc2c(NS(C)(=O)=O)cccc21 (stereo not drawn)", "IC50": "100 to 500 nM"}
{"COMPOUND": "CCC(C#CC#N)(c1ccc(Cl)cc1)n1ccc2c(NS(C)(=O)=O)cccc21 (single isomer, unassigned)", "IC50": "< 100 nM"}
{"COMPOUND": "CS(=O)(=O)Nc1cccc2c1ccn2C(CC#N)(C(=O)NCc1ccccc1)c1ccc(Cl)cc1 (stereo not drawn)", "IC50": "100 to 500 nM"}
{"COMPOUND": "CCC(C(C)=O)(c1ccc(C(F)(F)F)cc1)n1ccc2c(NS(C)(=O)=O)cccc21 (single isomer, unassigned) [Compound 103]", "IC50": "100 to 500 nM"}
{"COMPOUND": "CS(=O)(=O)Nc1cccc2c1ccn2C(CC#N)(c1ccc(Cl)cc1)c1nnc(-c2ccccc2)o1 (stereo not drawn)", "IC50": "100 to 500 nM"}
{"COMPOUND": "COC(=O)C(c1ccc(Cl)cc1Cl)n1ccc2c([N+](=O)[O-])cccc21 (stereo not drawn)", "IC50": "100 to 500 nM"}
{"COMPOUND": "CC[C@](C#N)(c1ccc(Cl)cc1)n1ccc2c(NS(C)(=O)=O)cccc21", "IC50": "< 100 nM"}
{"COMPOUND": "CS(=O)(=O)Nc1cccc2c1ccn2C(c1ccc(Cl)cc1)c1nc(-c2ccccc2)no1 (stereo not drawn)", "IC50": "500 to 5000 nM"}
{"COMPOUND": "CCC(/C=C/C#N)(c1ccc(Cl)cc1)n1ncc2c(N)cc(F)cc21 (stereo not drawn)", "IC50": "100 to 500 nM"}
{"COMPOUND": "CCC(c1ccc(Cl)cc1)(n1ncc2c(NS(C)(=O)=O)cccc21)C(C)(C)O (single isomer, unassigned)", "IC50": "< 100 nM"}
{"COMPOUND": "CCC(c1ccc(Cl)cc1)(C(C)O)n1ncc2c(NS(=O)(=O)N(C)C)cccc21 (stereo not drawn)", "IC50": "< 100 nM"}
